B1: RIT1 (parent)
chain: FHALVREIRRKEKEAVLAMEKKSK

- Variants of: B1
- ASSAY NOTES: protein stability index of a GFP-peptide fusion (GPS, HEK-293T) (PSI 1-6); higher = more stable;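 further: lentivirally expressed fusions sorted by FACS into six bins by GFP to DsRed ratio, PSI derived from sequencing read proportions per bin multiplied by bin number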
- ASSAY CONDITIONS: c terminus: a fixed tail appended
PROPERTY: protein stability index
No unit in the answer, only the number.

Example entries begin here.
- ENTRY SEQUENCE: "FHKLVREIRRKEKEAVLAMEKKSK [A3K]"
  protein stability index: 2.04
- ENTRY SEQUENCE: "FHAPVREIRRKEKEAVLAMEKKSK [L4P]"
  protein stability index: 3.1

*Q* Recorded protein stability index for MHALVREIRRKEKEAVLAMEKKSK [F1M] , please?
*A* 3.69

*Q* Report protein stability index for FHALVREIRRKEKEAVLAMECKSK [K21C] please.
*A* 1.99

*Q* Quick check: protein stability index of FHALVREIRRKEKEAVLAMHKKSK [E20H] ?
*A* 2.12

*Q* # query: protein stability index of entry FHALVREIRRKEKEAVLSMEKKSK [A18S]
*A* 2.26

*Q* Tell me the measured protein stability index of FHVLVREIRRKEKEAVLAMEKKSK [A3V] , please.
*A* 1.69

*Q* What does the record list as protein stability index for FHALVREIRRKEMEAVLAMEKKSK [K13M] ?
*A* 1.5

*Q* So what's the measured protein stability index for this one? FHALVREIRRKEEEAVLAMEKKSK [K13E]
*A* 1.08
